- study_target: T1, 4H855-bA
- T1 chain: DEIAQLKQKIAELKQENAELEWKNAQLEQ
- assay_summary: two-hybrid library CCNG1;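 also: natural log of median RNA to DNA barcode read ratio; higher means stronger binding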
readout_label: interaction score
One number for each entry.

DEIAQLKQKIAELEQENAELKWKIAQLEQ [4H797-bA]
0.572

Could you report interaction score for every entry in the following list?
1. DKIAQLKQEIAELKQEIAELEWENAQLEQ [4H2627-bA]
2. DEIAQLEQENAELEQKIAELKWEIAQLKQ [4H170-bA]
3. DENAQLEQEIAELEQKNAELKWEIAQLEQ [4H1081-bA]

result:
[-1.42, -0.225, -0.154]
